- Test system: transgenic rice plants (T14) over-expressing THT
- Assay Overview: Soil treatment of transgenic rice T14 with inducers; serotonin derivative content in seeds
- Format: in vivo
- Condition Set: seeds of transgenic rice T14; inducer 100 μM to soil, 300,000 L/ha, 20 days
Listed here: items and their measured Content of serotonin derivative: Coumaroyl serotonin.
Numeric only. Scale: ng/g seeds

Chemical Structure: O=C(O)C=Cc1ccccc1
Test Result: 403

Chemical Structure: NCCc1ccc(O)cc1
Test Result: 314

Chemical Structure: O=C(O)/C=C/c1ccc(O)c(O)c1
Test Result: 368

Chemical Structure: COc1cc(/C=C/C(=O)O)ccc1O
Test Result: 313

Chemical Structure: O=C(O)/C=C/c1ccc(O)cc1
Test Result: 325

Then this compound:
Query block: Tell me measured Content of serotonin derivative: Coumaroyl serotonin for `NCCc1c[nH]c2ccccc12` please.
Result block: 376
